B1: glmS ribozyme (parent)
chain: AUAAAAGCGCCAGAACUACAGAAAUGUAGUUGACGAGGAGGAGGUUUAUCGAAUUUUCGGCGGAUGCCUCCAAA

Variants of: B1
Assay: kcat; higher = faster cleavage; RNA array
Details: with glucosamine-6-phosphate
This sample holds only a part of the variants without activity.
# reported kcat; entries follow
Lab book: enter the figure in s⁻¹, no units written.

C11U U46G	0.000268
A6G U31G	0.000452

// moving on: another record for kcat
Notebook: A15C G32A U55A , kcat read as 0.00195

The origin of these recorded values is the supplement of paper PMC7125110.
